From: PubChem BioAssay (NCI)

System: SK-MEL-2 melanoma
procedure text: NCI tumour cell line growth inhibition, 48 h
# TGI annotations

{"columns": ["compound", "inequality symbol", "TGI (µM)"],
 "data": [
  ["O=C(O)c1cc(CC2Cc3cc4c(cc3C2=O)CCC4)cc2c1CCC2 (centres undefined)", ">", 100],
  ["COc1ccc(OC)c(-c2nc3n(c2/C=C2/C(=O)Nc4ccccc42)CCS3)c1", "=", 79],
  ["CC(=O)OC/C=C/[C@H](O[Si](C)(C)C(C)(C)C)[C@@H](O)/C=C/COC(C)=O", ">", 100],
  ["CC(=O)OCCCC(NC(=O)OC(C)(C)C)C(=O)NC(CCCOC(C)=O)C(=O)NC(Cc1ccc([N+](=O)[O-])cc1)C(=O)NCC(=O)OCc1ccccc1 (centres undefined)", "=", 29.1],
  ["O=C(NNC(=S)Nc1ccccc1)c1cc(-c2ccccc2)nc2ccccc12", "=", 31.9],
  ["CCN1C(=O)N(CC)C2C1NN=c1s/c(=C\\c3cccc(F)c3)c(=O)n12 (centres undefined)", ">", 100],
  ["COC(=O)C1=C(C)NC(C)=C(C(=O)OC)C1c1ccccc1NO", ">", 100],
  ["COc1ccc(/C=C/C(=O)c2cc(OC)c(OC)c(OC)c2)cc1OCc1cn(Cc2ccc(F)cc2)nn1", "=", 41],
  ["Cn1c(=O)c2c(nc3n(CCCCl)c(=O)ccn23)n(C)c1=O", ">", 100]
]}

----------
System: SF-268 CNS
procedure text: NCI tumour cell line growth inhibition, 48 h
Decision: TGI compared against 20 µM; not below it gives fulfilled, below it gives not fulfilled.

{"columns": ["compound", "qualitative label"],
 "data": [
  ["COc1ccc(/C=C2\\CCC(CNc3ccc(S(N)(=O)=O)cc3)C2=O)cc1 (stereo not given)", "fulfilled"],
  ["N#CC1(C#N)C2(c3ccccc3)OC(c3ccccc3)(c3cc4ccccc4cc32)C1(C#N)C#N", "fulfilled"],
  ["O=C(O)CCC(=O)N1c2ccccc2CC1c1c[nH]c2ccccc12 (stereo not given)", "fulfilled"],
  ["O=C(O)c1n[nH][nH]c1=S", "fulfilled"],
  ["c1coc(CNc2ncnc3[nH]ncc23)c1", "fulfilled"],
  ["O=C1C(Cl)=C(Nc2cccc(Cl)c2)C(=O)N1Cc1ccc(Cl)cc1", "not fulfilled"],
  ["CC1=C(C(=O)Nc2cc(=O)n(C)c(=O)n2C)C(c2ccco2)C(C(=O)Nc2cc(=O)n(C)c(=O)n2C)=C(C)N1", "fulfilled"],
  ["O=C(NNC(=S)Nc1ccccc1)c1cc(-c2ccccc2)nc2ccccc12", "fulfilled"],
  ["CCCCCCCCNc1cc2c3c(c1)CCCN3CCC2", "not fulfilled"],
  ["C=C1C(=O)O[C@H]2[C@H]1CC/C(CNC(=O)/C=C/c1cc(OC)c(OC)c(OC)c1)=C\\CC[C@@]1(C)O[C@@H]21", "not fulfilled"]
]}

----------
Test system: HT29 colon
procedure text: NCI tumour cell line growth inhibition, 48 h
# TGI annotations
experimental endpoint: TGI

{"columns": ["compound", "assayed target", "experimental endpoint", "meas value"],
 "data": [
  ["CC(C)=CC1C[C@H](C2CC=C3C2(C)CCC2[C@@]3(C)C(=O)CC3[C@]2(C)C=CC(=O)[C@]3(C)CO)CO1 (stereo not given in full)", "HT29 colon", "TGI", "18.2 µM"],
  ["Cc1cc2c(cc1Cl)SC(NNC(=O)c1ccco1)=NS2(=O)=O", "HT29 colon", "TGI", "> 10 µM"],
  ["OCCOCCN1CCN(CCCN2c3ccccc3Sc3ccc(C(F)(F)F)cc32)CC1", "HT29 colon", "TGI", "7.65 µM"],
  ["Cc1c2ccncc2c(C)c2c1[nH]c1ccc(OC(C)C)cc12", "HT29 colon", "TGI", "2.64 µM"],
  ["N#Cc1ccc(OCc2nc(N)nc(N)c2-c2ccc(Cl)c(Cl)c2)cc1", "HT29 colon", "TGI", "> 100 µM"]
]}
